Test system: Calu-6
MEASUREMENT PROTOCOL: relative viability (nuclei count vs DMSO), 5 days (fraction); higher = more cells survive
MEASUREMENT SETUP: first compound 0.6325 µM
ENDPOINT: relative viability
Just the number.

Query block: Notebook: pull reported relative viability for Calu-6, entry Cc1csc(=NC2CCCCC2)n1/N=C/c1ccc(O)c(O)c1O [MIM1] + Cc1nc(NC(=O)N2CCC[C@H]2C(N)=O)sc1-c1ccnc(C(C)(C)C(F)(F)F)c1 [Alpelisib] (partner 2 µM)
Result block: 1.02

Query block: What do you have for CN1CCN(CCOc2cc(OC3CCOCC3)c3c(Nc4c(Cl)ccc5c4OCO5)ncnc3c2)CC1 [Saracatinib] + CS(=O)(=O)CCNCc1ccc(-c2ccc3ncnc(Nc4ccc(OCc5cccc(F)c5)c(Cl)c4)c3c2)o1 [Lapatinib] (partner 2 µM) ?
Result block: 0.913

Query block: What do you get for Cc1csc(=NC2CCCCC2)n1/N=C/c1ccc(O)c(O)c1O [MIM1] + O=C(c1cc(Cc2n[nH]c(=O)c3ccccc23)ccc1F)N1CCN(C(=O)C2CC2)CC1 [Olaparib] (partner 8 µM) ?
Result block: 0.563

Query block: Input Cc1csc(=NC2CCCCC2)n1/N=C/c1ccc(O)c(O)c1O [MIM1] + CC1(C)CCC(c2ccc(Cl)cc2)=C(CN2CCN(c3ccc(C(=O)NS(=O)(=O)c4ccc(N[C@H](CCN5CCOCC5)CSc5ccccc5)c(S(=O)(=O)C(F)(F)F)c4)cc3)CC2)C1 [Navitoclax] (partner 0.5 µM)
Result block: 0.93

----------
I'd appreciate it if you could supply relative viability values for the items below.
Test system: NCI-H520
MEASUREMENT PROTOCOL: relative viability (nuclei count vs DMSO), 5 days (fraction); higher = more cells survive
MEASUREMENT SETUP: first compound 0.001 µM
Please state the value as a number alone, without comment.

Query block: Quick one: relative viability for Cc1cn(-c2cc(NC(=O)c3ccc(C)c(Nc4nccc(-c5cccnc5)n4)c3)cc(C(F)(F)F)c2)cn1 [Nilotinib] + COc1cc2c(Oc3ccc(NC(=O)C4(C(=O)Nc5ccc(F)cc5)CC4)cc3F)ccnc2cc1OCCCN1CCOCC1 [Foretinib] (partner 0.25 µM) ?
Result block: 0.757

Query block: Now the compound Cc1cn(-c2cc(NC(=O)c3ccc(C)c(Nc4nccc(-c5cccnc5)n4)c3)cc(C(F)(F)F)c2)cn1 [Nilotinib] + C[C@]1(O)C[C@@H](c2nc(-c3ccc4ccc(-c5ccccc5)nc4c3)c3c(N)nccn32)C1 [Linsitinib] (partner 1 µM)
Result block: 0.792

Query block: Ok, now Cc1cn(-c2cc(NC(=O)c3ccc(C)c(Nc4nccc(-c5cccnc5)n4)c3)cc(C(F)(F)F)c2)cn1 [Nilotinib] + C[C@@H](Oc1cc(-c2cnn(C3CCNCC3)c2)cnc1N)c1c(Cl)ccc(F)c1Cl [Crizotinib] (partner 1 µM)
Result block: 0.656

Query block: Next compound: Cc1cn(-c2cc(NC(=O)c3ccc(C)c(Nc4nccc(-c5cccnc5)n4)c3)cc(C(F)(F)F)c2)cn1 [Nilotinib] + N=C(N)NC(=N)NCCc1ccccc1 [Phenformin] (partner 250 µM)
Result block: 0.707

Query block: Could you do the same for Cc1cn(-c2cc(NC(=O)c3ccc(C)c(Nc4nccc(-c5cccnc5)n4)c3)cc(C(F)(F)F)c2)cn1 [Nilotinib] + Nc1ncn([C@H]2C[C@H](O)[C@@H](CO)O2)c(=O)n1 [Decitabine] (partner 2 µM) , please?
Result block: 0.473

----------
Tested on: NCI-H358
MEASUREMENT PROTOCOL: relative viability (nuclei count vs DMSO), 5 days (fraction); higher = more cells survive
MEASUREMENT SETUP: first compound 0.006325 µM
Threshold-based label: relative viability under 0.2 gives t, relative viability not under 0.2 gives f.

Query block: Is 0.2 strictly greater than the compound's reported relative viability? compound: CCNC(=O)c1noc(-c2cc(C(C)C)c(O)cc2O)c1-c1ccc(CN2CCOCC2)cc1 [Luminespib] + Cc1nc(NC(=O)N2CCC[C@H]2C(N)=O)sc1-c1ccnc(C(C)(C)C(F)(F)F)c1 [Alpelisib] (partner 2 µM)
Result block: f

Query block: Field entry: CCNC(=O)c1noc(-c2cc(C(C)C)c(O)cc2O)c1-c1ccc(CN2CCOCC2)cc1 [Luminespib] + COc1cc2c(Oc3ccc(NC(=O)C4(C(=O)Nc5ccc(F)cc5)CC4)cc3F)ccnc2cc1OCCCN1CCOCC1 [Foretinib] (partner 0.25 µM)
Result block: f

Query block: Also CCNC(=O)c1noc(-c2cc(C(C)C)c(O)cc2O)c1-c1ccc(CN2CCOCC2)cc1 [Luminespib] + Nc1nc2[nH]cc(CCc3ccc(C(=O)N[C@@H](CCC(=O)O)C(=O)O)cc3)c2c(=O)[nH]1 [Pemetrexed] (partner 0.2 µM) ?
Result block: t

Query block: One more compound: CCNC(=O)c1noc(-c2cc(C(C)C)c(O)cc2O)c1-c1ccc(CN2CCOCC2)cc1 [Luminespib] + CC(=O)c1c(C)c2cnc(Nc3ccc(N4CCNCC4)cn3)nc2n(C2CCCC2)c1=O [Palbociclib] (partner 0.5 µM)
Result block: t

Query block: Next compound: CCNC(=O)c1noc(-c2cc(C(C)C)c(O)cc2O)c1-c1ccc(CN2CCOCC2)cc1 [Luminespib] + NC(=O)Nc1cc(-c2cccc(F)c2)sc1C(=O)N[C@H]1CCCNC1 [AZD7762] (partner 0.2 µM)
Result block: f

----------
System: HCC-15
MEASUREMENT PROTOCOL: relative viability (nuclei count vs DMSO), 5 days (fraction); higher = more cells survive
MEASUREMENT SETUP: first compound 0.6325 µM
Entries whose relative viability is below 0.6 take yes; entries at or above 0.6 take no.

Query block: Please let me know if CN1CCN(CCOc2cc(OC3CCOCC3)c3c(Nc4c(Cl)ccc5c4OCO5)ncnc3c2)CC1 [Saracatinib] + O=C(c1cc(Cc2n[nH]c(=O)c3ccccc23)ccc1F)N1CCN(C(=O)C2CC2)CC1 [Olaparib] (partner 8 µM) shows relative viability below 0.6.
Result block: no

Query block: // next record Cc1csc(=NC2CCCCC2)n1/N=C/c1ccc(O)c(O)c1O [MIM1] + O=C(c1cc(Cc2n[nH]c(=O)c3ccccc23)ccc1F)N1CCN(C(=O)C2CC2)CC1 [Olaparib] (partner 8 µM)
Result block: no

Query block: Input CN1CCN(CCOc2cc(OC3CCOCC3)c3c(Nc4c(Cl)ccc5c4OCO5)ncnc3c2)CC1 [Saracatinib] + CS(=O)(=O)N1CCN(Cc2cc3nc(-c4cccc5[nH]ncc45)nc(N4CCOCC4)c3s2)CC1 [Pictilisib] (partner 1 µM)
Result block: no

Query block: Moving on to CN1CCN(CCOc2cc(OC3CCOCC3)c3c(Nc4c(Cl)ccc5c4OCO5)ncnc3c2)CC1 [Saracatinib] + O=C(CCCCCCC(=O)Nc1ccccc1)NO [Vorinostat] (partner 1 µM)
Result block: no

Query block: Now give it for CN1CCN(CCOc2cc(OC3CCOCC3)c3c(Nc4c(Cl)ccc5c4OCO5)ncnc3c2)CC1 [Saracatinib] + C[C@@H](Oc1cc(-c2cnn(C3CCNCC3)c2)cnc1N)c1c(Cl)ccc(F)c1Cl [Crizotinib] (partner 1 µM) too.
Result block: no

Query block: Then this compound: Cc1csc(=NC2CCCCC2)n1/N=C/c1ccc(O)c(O)c1O [MIM1] + CS(=O)(=O)CCNCc1ccc(-c2ccc3ncnc(Nc4ccc(OCc5cccc(F)c5)c(Cl)c4)c3c2)o1 [Lapatinib] (partner 2 µM)
Result block: yes

Query block: One more compound: Cc1csc(=NC2CCCCC2)n1/N=C/c1ccc(O)c(O)c1O [MIM1] + CS(=O)(=O)N1CCN(Cc2cc3nc(-c4cccc5[nH]ncc45)nc(N4CCOCC4)c3s2)CC1 [Pictilisib] (partner 1 µM)
Result block: yes

Query block: Another compound: CN1CCN(CCOc2cc(OC3CCOCC3)c3c(Nc4c(Cl)ccc5c4OCO5)ncnc3c2)CC1 [Saracatinib] + COc1cc2c(Oc3ccc(NC(=O)C4(C(=O)Nc5ccc(F)cc5)CC4)cc3F)ccnc2cc1OCCCN1CCOCC1 [Foretinib] (partner 0.25 µM)
Result block: no

Query block: Please give the result for CN1CCN(CCOc2cc(OC3CCOCC3)c3c(Nc4c(Cl)ccc5c4OCO5)ncnc3c2)CC1 [Saracatinib] + NC(=O)Nc1cc(-c2cccc(F)c2)sc1C(=O)N[C@H]1CCCNC1 [AZD7762] (partner 0.2 µM) too.
Result block: no

Query block: And CN1CCN(CCOc2cc(OC3CCOCC3)c3c(Nc4c(Cl)ccc5c4OCO5)ncnc3c2)CC1 [Saracatinib] + CC(=O)Nc1cccc(-n2c(=O)n(C3CC3)c(=O)c3c(Nc4ccc(I)cc4F)n(C)c(=O)c(C)c32)c1 [Trametinib] (partner 0.02 µM) ?
Result block: yes

Query block: Now the compound CN1CCN(CCOc2cc(OC3CCOCC3)c3c(Nc4c(Cl)ccc5c4OCO5)ncnc3c2)CC1 [Saracatinib] + Nc1nc2[nH]cc(CCc3ccc(C(=O)N[C@@H](CCC(=O)O)C(=O)O)cc3)c2c(=O)[nH]1 [Pemetrexed] (partner 0.2 µM)
Result block: yes

Query block: What would you report for CN1CCN(CCOc2cc(OC3CCOCC3)c3c(Nc4c(Cl)ccc5c4OCO5)ncnc3c2)CC1 [Saracatinib] + COc1cccc2cc(-c3nc([C@H]4CC[C@H](C(=O)O)CC4)n4ncnc(N)c34)[nH]c12 [OSI-027] (partner 0.5 µM) ?
Result block: no
